Overview of reported %Inh across a group of molecules:
# Tested on: LATS1
# condition_parameters: concentration: 1 μM, replicates: in singlicate; n = 1;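 also: KINOMEscan kinase panel screen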
Unit % implied. Number only.

Use the examples below as a reference point.
[[record]]
molecule = "CCCc1ccc(S(=O)(=O)NC2CCN(c3ccnc(Nc4ccc(OC)cc4)n3)C2)cc1 (stereo not drawn)"
target_system = "LATS1"
assay_metric = "%Inh"
value_observed = 0

[[record]]
molecule = "CC(C)(C)OC(=O)NC1CCCN(c2cc(-c3ccc4c(N)n[nH]c4c3)nc(N)n2)C1 (stereo not drawn)"
target_system = "LATS1"
assay_metric = "%Inh"
value_observed = 11

[[record]]
molecule = "Nc1n[nH]c2nnc(-c3ccccc3)cc12"
target_system = "LATS1"
assay_metric = "%Inh"
value_observed = 0

[[record]]
molecule = "CN1c2ccc(-c3ccc(C(=O)NCCO)cc3)cc2-c2[nH]ncc2S1(=O)=O"
target_system = "LATS1"
assay_metric = "%Inh"
value_observed = 0

[[record]]
molecule = "CC(C)N1CCC(n2cnc(-c3ccc(F)cc3)c2-c2ccnc(N)n2)CC1"
target_system = "LATS1"
assay_metric = "%Inh"
value_observed = 0


I'd like to know its %Inh. The molecule in question is OCCOCCn1ccc2ncnc(Nc3ccc(Oc4cccc(Cl)c4)c(Cl)c3)c21
0

Requested read-out: %Inh. Entry: Nc1nc(-c2ccc3c(N)n[nH]c3c2)cc(N2CCCCC2)n1
0

Reported %Inh for CCn1c(-c2ccncc2)nc2cnccc21 : what is it?
17

%Inh for CNc1nccc(-c2c(-c3ccc(F)cc3)ncn2C2CCN(C)CC2)n1 ?
2

If you can, please state the reported %Inh value of CCc1nc(-c2cccc(C)c2)c(-c2ccnc(NC(=O)c3ccccc3)c2)s1 .
30

Sample Cc1ccc(O)cc1Nc1cc(C(F)(F)F)nc2ccc(-c3ccncc3)cc12 — what was its %Inh?
0

What does the data say about its %Inh? Entry: c1ccc(-c2ccc3c(-c4ccnc(Nc5ccc6c(c5)OCCO6)n4)cnn3n2)cc1
11

====

# System: TRKB
# condition_parameters: concentration: 1 μM, replicates: in singlicate; n = 1
Below, each entry is listed with its recorded %Inh.
# unit: % | format: bare number

[[record]]
compound = "Cl.Fc1ccccc1COc1ccc(Nc2ncnc3ccc(-c4nnc(C(F)(F)F)o4)cc23)cc1Cl"
value_observed = 6

[[record]]
compound = "Cl.Cn1ccc(-c2cccc(Nc3ccnc4cc(-c5nccs5)ccc34)c2)n1"
value_observed = 60

[[record]]
compound = "CC(C)N1CCC(n2cnc(-c3ccc(F)cc3)c2-c2ccnc(N)n2)CC1"
value_observed = 0

[[record]]
compound = "CS(=O)(=O)CCNCc1nc(-c2ccc3ncnc(Nc4ccc(OCc5cccc(F)c5)c(Cl)c4)c3c2)cs1.Cl"
value_observed = 0

[[record]]
compound = "Cn1cc(-c2ccc3c(c2)CCN3C(=O)Cc2cccc(C(F)(F)F)c2)c2c(N)ncnc21"
value_observed = 46


Consider the compound Cl.Cl.c1ccc(-c2cc3ccncc3cc2OC2CCNCC2)cc1 and give its measured %Inh.
0

What does the record list as %Inh for CC(C)(C)c1ccc(-n2cnc3c(N)ncnc32)cc1 ?
0

What does the data say about its %Inh? Entry: Fc1ccc(Nc2nccc(-c3c(-c4ccc(Cl)cc4)nn4ncccc34)n2)cc1F
0

# lookup: %Inh of Cc1ccc(O)cc1Nc1cc(C(F)(F)F)nc2ccc(-c3ccncc3)cc12
0

Consider the compound shown here: COc1ccc(Nc2nccc(N3CCC(NC(=O)c4cccc(NC(C)=O)c4)C3)n2)cc1 (centres unmarked) What is its recorded %Inh?
40

Endpoint output: %Inh of Oc1ccc2ncnc(Nc3ccc(OCc4ccccc4)cc3)c2c1 . Value?
0
